In this section, each of the compounds is paired with its reported Growth Inhibition(%) Neuroblastma IMR-32.
- System: Neuroblastoma (IMR-32) cancer cell line
- MEASUREMENT DESCRIPTION: SRB in vitro cytotoxicity assay, Neuroblastoma IMR-32
- Type: cell-based, human
- SETUP CONDITIONS: concentration 1 × 10^−5 (μM/mL)
OBSERVABLE: Growth Inhibition(%) Neuroblastma IMR-32

1) COc1cc([C@@H]2c3cc4c(cc3[C@@H](Nc3cccc5cc6ccccc6cc35)[C@@H]3COC(=O)[C@H]23)OCO4)cc(OC)c1O ... 0
2) COc1cc([C@@H]2c3cc4c(cc3[C@@H](Nc3ccc(C(=O)c5ccc(N(CCCl)CCCl)cc5)cc3)[C@@H]3COC(=O)[C@H]23)OCO4)cc(OC)c1OC ... 0
3) COc1cc([C@@H]2c3cc4c(cc3[C@@H](Nc3cccc5cc6ccccc6cc35)[C@@H]3COC(=O)[C@H]23)OCO4)cc(OC)c1OC ... 16
4) COc1cc([C@@H]2c3cc4c(cc3[C@@H](Nc3ccc5ccc6cccc7ccc3c5c67)[C@@H]3COC(=O)[C@H]23)OCO4)cc(OC)c1O ... 0
5) COc1cc([C@@H]2c3cc4c(cc3[C@@H](Nc3ccc(C(=O)c5ccc(F)cc5)cc3)[C@@H]3COC(=O)[C@H]23)OCO4)cc(OC)c1O ... 11
6) COc1cc([C@@H]2c3cc4c(cc3[C@@H](Nc3cccc5c3Cc3ccccc3-5)[C@@H]3COC(=O)[C@H]23)OCO4)cc(OC)c1OC ... 0
7) COc1cc([C@@H]2c3cc4c(cc3[C@@H](Nc3ccc(C(=O)c5ccc(F)cc5)cc3)[C@@H]3COC(=O)[C@H]23)OCO4)cc(OC)c1OC ... 0
8) COc1cc([C@@H]2c3cc4c(cc3[C@@H](Nc3cccc5c3Cc3ccccc3-5)[C@@H]3COC(=O)[C@H]23)OCO4)cc(OC)c1O ... 0
9) COc1cc([C@@H]2c3cc4c(cc3[C@@H](Nc3ccc5ccc6cccc7ccc3c5c67)[C@@H]3COC(=O)[C@H]23)OCO4)cc(OC)c1OC ... 0
10) COc1cc([C@@H]2c3cc4c(cc3[C@@H](Nc3cc5c6ccccc6ccc5c5ccccc35)[C@@H]3COC(=O)[C@H]23)OCO4)cc(OC)c1O ... 0
11) COc1cc([C@@H]2c3cc4c(cc3[C@@H](Nc3cc5c6ccccc6ccc5c5ccccc35)[C@@H]3COC(=O)[C@H]23)OCO4)cc(OC)c1OC ... 1

====

- Tested on: Breast (MCF-7) cancer cell line
- MEASUREMENT DESCRIPTION: SRB in vitro cytotoxicity assay, Breast MCF-7
- Assay type: cell-based, human
- SETUP CONDITIONS: concentration 1 × 10^−5 (μM/mL)
OBSERVABLE: Growth Inhibition(%) Breast MCF-7

1) COc1cc([C@@H]2c3cc4c(cc3[C@@H](Nc3cccc5cc6ccccc6cc35)[C@@H]3COC(=O)[C@H]23)OCO4)cc(OC)c1OC ... 5
2) COc1cc([C@@H]2c3cc4c(cc3[C@@H](Nc3ccc5ccc6cccc7ccc3c5c67)[C@@H]3COC(=O)[C@H]23)OCO4)cc(OC)c1OC ... 0
3) COc1cc([C@@H]2c3cc4c(cc3[C@@H](Nc3cccc5cc6ccccc6cc35)[C@@H]3COC(=O)[C@H]23)OCO4)cc(OC)c1O ... 0
4) COc1cc([C@@H]2c3cc4c(cc3[C@@H](Nc3cccc5c3Cc3ccccc3-5)[C@@H]3COC(=O)[C@H]23)OCO4)cc(OC)c1O ... 39
5) COc1cc([C@@H]2c3cc4c(cc3[C@@H](Nc3ccc(C(=O)c5ccc(N(CCCl)CCCl)cc5)cc3)[C@@H]3COC(=O)[C@H]23)OCO4)cc(OC)c1OC ... 40
6) COc1cc([C@@H]2c3cc4c(cc3[C@@H](Nc3cc5c6ccccc6ccc5c5ccccc35)[C@@H]3COC(=O)[C@H]23)OCO4)cc(OC)c1OC ... 0
7) COc1cc([C@@H]2c3cc4c(cc3[C@@H](Nc3ccc(C(=O)c5ccc(F)cc5)cc3)[C@@H]3COC(=O)[C@H]23)OCO4)cc(OC)c1O ... 39
8) COc1cc([C@@H]2c3cc4c(cc3[C@@H](Nc3cc5c6ccccc6ccc5c5ccccc35)[C@@H]3COC(=O)[C@H]23)OCO4)cc(OC)c1O ... 0
9) COc1cc([C@@H]2c3cc4c(cc3[C@@H](Nc3ccc5ccc6cccc7ccc3c5c67)[C@@H]3COC(=O)[C@H]23)OCO4)cc(OC)c1O ... 0
10) COc1cc([C@@H]2c3cc4c(cc3[C@@H](Nc3ccc(C(=O)c5ccc(F)cc5)cc3)[C@@H]3COC(=O)[C@H]23)OCO4)cc(OC)c1OC ... 30
11) COc1cc([C@@H]2c3cc4c(cc3[C@@H](Nc3cccc5c3Cc3ccccc3-5)[C@@H]3COC(=O)[C@H]23)OCO4)cc(OC)c1OC ... 4
